Below, each entry is listed with its recorded pKi.
- System under test: 5-hydroxytryptamine receptor 1A (Homo sapiens, UniProt P08908)
- Sequence (P08908 whole entry): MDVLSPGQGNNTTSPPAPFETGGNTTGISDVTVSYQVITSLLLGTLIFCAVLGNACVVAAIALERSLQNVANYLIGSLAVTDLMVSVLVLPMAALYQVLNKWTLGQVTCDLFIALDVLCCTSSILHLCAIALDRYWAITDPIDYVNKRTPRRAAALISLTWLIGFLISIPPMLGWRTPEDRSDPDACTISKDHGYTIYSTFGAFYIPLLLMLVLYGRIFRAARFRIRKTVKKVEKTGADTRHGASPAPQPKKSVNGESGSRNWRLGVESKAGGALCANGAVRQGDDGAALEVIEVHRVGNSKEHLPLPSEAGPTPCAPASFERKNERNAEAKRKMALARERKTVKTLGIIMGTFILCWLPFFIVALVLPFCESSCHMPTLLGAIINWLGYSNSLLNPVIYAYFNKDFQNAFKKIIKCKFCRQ
pKi: −log10 of the molar value.
Measurement kind: pKi

INSERT INTO results (entry_smiles, assay_result) VALUES
  ('COc1cccc(N2CCN(C(=O)COc3ccc4[nH]cc(CCN)c4c3)CC2)c1', 8.01),
  ('NCCc1c[nH]c2ccc(OCC(=O)N3CCN(c4cccc5ccccc45)CC3)cc12', 8.05);

====

pIC50, Muscarinic acetylcholine receptor M4 (Homo sapiens), per-entry values.
pIC50: −log10 of the molar value.
Measurement kind: pIC50

INSERT INTO measurements (entry_smiles, assay_result) VALUES
  ('Cc1ccccc1N1CCN(C(=O)COc2ccc3[nH]cc(CCN)c3c2)CC1', '< 5.00'),
  ('NCCc1c[nH]c2ccc(OCC(=O)N3CCN(c4cccc5ccccc45)CC3)cc12', '< 6.00');

====

Let's go through some pKi measurements on 5-hydroxytryptamine receptor 1D (Homo sapiens) together.
Sequence (P28221 whole entry): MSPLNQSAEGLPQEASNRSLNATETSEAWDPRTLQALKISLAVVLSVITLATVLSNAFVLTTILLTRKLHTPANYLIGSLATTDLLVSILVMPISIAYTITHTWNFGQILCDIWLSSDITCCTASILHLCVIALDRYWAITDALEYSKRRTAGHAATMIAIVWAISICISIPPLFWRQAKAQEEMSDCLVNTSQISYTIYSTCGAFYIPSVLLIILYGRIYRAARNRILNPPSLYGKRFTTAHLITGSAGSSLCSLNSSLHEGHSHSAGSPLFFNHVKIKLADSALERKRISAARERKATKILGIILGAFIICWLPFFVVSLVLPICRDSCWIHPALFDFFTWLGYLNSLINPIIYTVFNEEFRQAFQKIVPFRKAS
pKi: −log10 of the molar value.
Measurement kind: pKi

INSERT INTO results (entry_smiles, measurement_kind, assay_result) VALUES
  ('NCCc1c[nH]c2ccc(OCC(=O)N3CCN(c4cccc5ccccc45)CC3)cc12', 'pKi', 9.02),
  ('COc1cccc(N2CCN(C(=O)COc3ccc4[nH]cc(CCN)c4c3)CC2)c1', 'pKi', 8.70);

====

- System under test: 5-hydroxytryptamine receptor 2C (Rattus norvegicus)
- Sequence (P08909 whole entry): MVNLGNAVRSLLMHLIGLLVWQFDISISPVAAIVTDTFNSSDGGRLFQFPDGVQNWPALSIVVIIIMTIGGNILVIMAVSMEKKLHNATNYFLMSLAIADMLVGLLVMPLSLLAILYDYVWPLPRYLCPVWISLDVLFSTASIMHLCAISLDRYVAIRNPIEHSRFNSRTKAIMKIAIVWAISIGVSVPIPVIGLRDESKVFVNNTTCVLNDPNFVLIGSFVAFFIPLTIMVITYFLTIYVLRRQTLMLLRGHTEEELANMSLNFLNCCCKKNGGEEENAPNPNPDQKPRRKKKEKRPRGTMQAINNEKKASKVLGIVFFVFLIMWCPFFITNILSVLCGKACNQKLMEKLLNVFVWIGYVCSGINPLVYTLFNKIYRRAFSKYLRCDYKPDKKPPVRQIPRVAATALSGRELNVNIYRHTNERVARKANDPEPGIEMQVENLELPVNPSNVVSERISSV
Measurement kind: IC50

INSERT INTO measurements (entry_smiles, system_under_test, assay_result) VALUES
  ('NCCc1c[nH]c2ccc(OCC(=O)N3CCN(c4cccc5ccccc45)CC3)cc12', '5-hydroxytryptamine receptor 2C (Rattus norvegicus)', '> 1000 nM');
